- measured on: HIV-1 protease (wild-type, WT) (Human immunodeficiency virus type 1 group M subtype B)
- Construct: purified HIV-1 protease (wild-type, WT)
- assay protocol: biochemical
- experimental conditions: Table I; unit inferred; read-out: Ki
Could you please mark Met for values of Ki below 4 nM and Not met for values at or above it?

For Cc1c(O)cccc1C(=O)N[C@@H](Cc1ccccc1)[C@H](O)[C@H](O)[C@H](Cc1ccccc1)NC(=O)OC(C)(C)C [RS-198] , is the recorded Ki below the cut-off of 4 nM?
Not met

For Cc1ccc(O)cc1C(=O)N[C@@H](Cc1ccccc1)C[C@H](O)[C@H](Cc1ccccc1)NC(=O)c1cc(O)ccc1C [RS-201] , is the recorded Ki below the cut-off of 4 nM?
Not met

For O=C(N[C@@H](Cc1ccccc1)[C@H](O)[C@H](O)[C@H](Cc1ccccc1)NC(=O)c1ccccc1)c1ccccc1 [Diol-56] , is the recorded Ki below the cut-off of 4 nM?
Not met

For Cc1c(O)cccc1C(=O)N[C@@H](Cc1ccccc1)[C@@H](O)[C@@H](O)[C@H](Cc1ccccc1)NC(=O)OC(C)(C)C [RS-199] , is the recorded Ki below the cut-off of 4 nM?
Met

For Cc1c(O)cccc1C(=O)N[C@@H](Cc1ccccc1)[C@@H](O)C[C@H](Cc1ccccc1)NC(=O)c1ccc(O)cc1 [AN-88] , is the recorded Ki below the cut-off of 4 nM?
Met

For Cc1c(O)cccc1C(=O)N[C@@H](Cc1ccccc1)[C@@H](O)C[C@H](Cc1ccccc1)NC(=O)O[C@H]1CCOC1 [AN-98] , is the recorded Ki below the cut-off of 4 nM?
Met

For O=C(N[C@@H](Cc1ccccc1)[C@H](O)[C@H](O)[C@H](Cc1ccccc1)NC(=O)c1ccc(O)cc1)c1ccc(O)cc1 [Diol-51] , is the recorded Ki below the cut-off of 4 nM?
Not met

For Cc1c(O)cccc1C(=O)N[C@@H](Cc1ccccc1)[C@@H](O)C[C@H](Cc1ccccc1)NC(=O)OCc1cccnc1 [AN-92] , is the recorded Ki below the cut-off of 4 nM?
Met

For Cc1c(O)cccc1C(=O)N[C@@H](Cc1ccccc1)[C@@H](O)C[C@H](Cc1ccccc1)NC(=O)c1cccc(O)c1 [AN-89] , is the recorded Ki below the cut-off of 4 nM?
Met

For Cc1ccccc1C(=O)N[C@@H](Cc1ccccc1)[C@H](O)[C@H](O)[C@H](Cc1ccccc1)NC(=O)c1ccccc1C [Diol-57] , is the recorded Ki below the cut-off of 4 nM?
Not met

For Nc1ccccc1C(=O)N[C@@H](Cc1ccccc1)C[C@H](O)[C@H](Cc1ccccc1)NC(=O)c1ccccc1N [AN-72] , is the recorded Ki below the cut-off of 4 nM?
Not met

For Cc1c(O)cccc1C(=O)N[C@@H](Cc1ccccc1)[C@@H](O)C[C@H](Cc1ccccc1)NC(=O)OC(C)(C)C [RS-208] , is the recorded Ki below the cut-off of 4 nM?
Met

For Cc1c(O)cccc1C(=O)N[C@@H](Cc1ccccc1)[C@H](O)[C@H](O)[C@H](Cc1ccccc1)NC(=O)c1cccc(O)c1C [Diol-52] , is the recorded Ki below the cut-off of 4 nM?
Met

Origin of values: patent US5763464A
